Reported solubility kinetic values for the following compounds.
# ASSAY_CONDITIONS: buffer; pH 7.4; 200.0 µM
RESULT_TYPE: solubility kinetic

{"COMPOUND": "CCNc1nc(SCC(=O)OC)nc(N(C)C)n1", "RESULT_TYPE": "solubility kinetic", "RESULT": "> 40.7 µg/mL"}
{"COMPOUND": "COCCCn1c(SCC(=O)N2CCOCC2)nc2ccccc2c1=O", "RESULT_TYPE": "solubility kinetic", "RESULT": "52.2 µg/mL"}
{"COMPOUND": "COc1cccc(S(=O)(=O)c2nc(C)c3c(n2)CCC3)c1", "RESULT_TYPE": "solubility kinetic", "RESULT": "> 45.7 µg/mL"}
{"COMPOUND": "CN(CC(=O)NCc1ccccc1)Cc1ccc(Cl)cc1", "RESULT_TYPE": "solubility kinetic", "RESULT": "43.3 µg/mL"}
{"COMPOUND": "Nc1nc(F)nc2c1ncn2[C@@H]1O[C@H](CO)[C@@H](O)[C@H]1O", "RESULT_TYPE": "solubility kinetic", "RESULT": "> 42.8 µg/mL"}
{"COMPOUND": "CC1CN(c2ccc(S(=O)(=O)N3CCCC3)cn2)CC(C)O1 (stereo unspecified)", "RESULT_TYPE": "solubility kinetic", "RESULT": "> 48.8 µg/mL"}
{"COMPOUND": "CCNC(=O)c1ccc(C23CC4CC(CC(C4)C2)C3)o1", "RESULT_TYPE": "solubility kinetic", "RESULT": "< 0.6 µg/mL"}
{"COMPOUND": "CN1CCN(C2CC(=O)N(CCc3ccccc3)C2=O)CC1 (stereo unspecified)", "RESULT_TYPE": "solubility kinetic", "RESULT": "> 45.2 µg/mL"}
{"COMPOUND": "CC1=NN(C(=O)c2ccccc2C)C(O)(c2ccc(Cl)cc2)C1 (stereo unspecified)", "RESULT_TYPE": "solubility kinetic", "RESULT": "> 49.3 µg/mL"}
{"COMPOUND": "COc1ccc(C2C(C#N)=C(N)OC3=C2C(=O)CCC3)cc1OC (stereo unspecified)", "RESULT_TYPE": "solubility kinetic", "RESULT": "> 49 µg/mL"}
{"COMPOUND": "CC(C)OP(=O)(OC(C)C)C(Nc1ccc(C(=O)O)cc1)c1ccccc1 (stereo unspecified)", "RESULT_TYPE": "solubility kinetic", "RESULT": "> 58.7 µg/mL"}

---

# ASSAY_CONDITIONS: buffer; pH 7.4; 200.0 µM
Response key: 1 means solubility kinetic >= 30 µg/mL; 0 means solubility kinetic < 30 µg/mL.

{"COMPOUND": "CC(=O)NC(Cc1ccccc1)C(C)=O (configuration not stated)", "ASSIGNED_CLASS": 1}
{"COMPOUND": "CC(NC(=O)C(=O)Nc1nccs1)c1ccccc1 (configuration not stated)", "ASSIGNED_CLASS": 1}
{"COMPOUND": "CC(C)(C)C1CCC(=NOC(=O)c2ccc(F)cc2)CC1 (configuration not stated)", "ASSIGNED_CLASS": 0}
{"COMPOUND": "Cc1cc(/C=C(\\C#N)C(=O)N2CCOCC2)c(C)n1C1CCCC1", "ASSIGNED_CLASS": 1}
{"COMPOUND": "COc1ccc(OC)c(CN2CCSCC2)c1", "ASSIGNED_CLASS": 0}
{"COMPOUND": "CC(C(=O)NC1CCCC1)N1C(=O)c2cccc3cccc1c23 (configuration not stated)", "ASSIGNED_CLASS": 1}
{"COMPOUND": "COCCCNC(=O)c1ccc(C2SCC(=O)N2Cc2ccco2)cc1 (configuration not stated)", "ASSIGNED_CLASS": 1}
{"COMPOUND": "Cc1ccc2sc(N(CCN(C)C)C(=O)c3ccc4ccccc4c3)nc2c1C.Cl", "ASSIGNED_CLASS": 0}
{"COMPOUND": "CCC(=O)Nc1ccc(C(=O)CSc2nc(N)cc(N)n2)cc1", "ASSIGNED_CLASS": 1}
{"COMPOUND": "O=C(Nc1ccc2c(c1)Cc1ccccc1-2)c1ccccc1F", "ASSIGNED_CLASS": 0}
{"COMPOUND": "O=[N+]([O-])c1cc2c(cc1C=Nc1ccccc1)OCO2", "ASSIGNED_CLASS": 1}
{"COMPOUND": "O=C(Nc1cc(=O)[nH]c(=O)[nH]1)c1cc(Cl)ccc1Cl", "ASSIGNED_CLASS": 1}

---

# ASSAY_CONDITIONS: buffer; pH 7.4; 200.0 µM
Reported solubility kinetic values for the following compounds.
RESULT_TYPE: solubility kinetic (µg/mL)

{"COMPOUND": "CCN(c1ccc(NC(=O)COC(=O)/C=C/c2ccco2)cc1)C(C)C", "UNITS_TEXT": "µg/mL", "QUALIFIER_SYMBOL": "=", "NUMERIC_RESULT": 24.5}
{"COMPOUND": "COc1ccc(-c2ccc3ccccc3n2)cc1", "UNITS_TEXT": "µg/mL", "QUALIFIER_SYMBOL": "<", "NUMERIC_RESULT": 0.5}
{"COMPOUND": "COc1ccccc1CNC(=O)COC(=O)C1CC1", "UNITS_TEXT": "µg/mL", "QUALIFIER_SYMBOL": ">", "NUMERIC_RESULT": 39.5}
{"COMPOUND": "COc1ccc(NC(=S)Nc2ccc(OC(F)F)cc2)cn1", "UNITS_TEXT": "µg/mL", "QUALIFIER_SYMBOL": "=", "NUMERIC_RESULT": 35}
{"COMPOUND": "C[N+](C)(C)CCOC(=O)CCC(=O)OCC[N+](C)(C)C.O.[Cl-]", "UNITS_TEXT": "µg/mL", "QUALIFIER_SYMBOL": ">", "NUMERIC_RESULT": 59.6}
{"COMPOUND": "CCn1c(=O)c2cc(C(=O)NCCC(C)C)sc2c2ccccc21", "UNITS_TEXT": "µg/mL", "QUALIFIER_SYMBOL": "<", "NUMERIC_RESULT": 0.4}
{"COMPOUND": "Cc1cc(N2C(=O)C(O)=C(C(=O)c3cccs3)C2c2ccc(F)cc2)no1 (configuration not stated)", "UNITS_TEXT": "µg/mL", "QUALIFIER_SYMBOL": ">", "NUMERIC_RESULT": 57.7}
{"COMPOUND": "COc1ccc(N=Cc2c(OC)ccc3ccccc23)cc1", "UNITS_TEXT": "µg/mL", "QUALIFIER_SYMBOL": "=", "NUMERIC_RESULT": 33.9}
{"COMPOUND": "O=[N+]([O-])c1ccccc1S(=O)(=O)N1CCN(Cc2ccccc2)CC1", "UNITS_TEXT": "µg/mL", "QUALIFIER_SYMBOL": "=", "NUMERIC_RESULT": 24.4}
{"COMPOUND": "CCCOc1ccc(C(=O)OCCN(CC)CC)cc1N.Cl", "UNITS_TEXT": "µg/mL", "QUALIFIER_SYMBOL": ">", "NUMERIC_RESULT": 49.6}
{"COMPOUND": "NC(=O)c1cc(S(=O)(=O)NCCCc2ccco2)cs1", "UNITS_TEXT": "µg/mL", "QUALIFIER_SYMBOL": ">", "NUMERIC_RESULT": 47.2}
{"COMPOUND": "COC(=O)c1sc(NC(=O)c2ccco2)c(C#N)c1C", "UNITS_TEXT": "µg/mL", "QUALIFIER_SYMBOL": "=", "NUMERIC_RESULT": 3.7}

---

# ASSAY_CONDITIONS: buffer; pH 7.4; 200.0 µM
Reported log10 of solubility kinetic values for the following molecules.
RESULT_TYPE: log10 of solubility kinetic (log10 of the value in µg/mL)

{"MOLECULE": "COc1ccc(C(=O)Nc2cccc(S(=O)(=O)N(C)C)c2)cc1S(=O)(=O)N1CCOCC1", "log10 of solubility kinetic": 1.09}
{"MOLECULE": "O=C(O)c1ccc2c(c1)C(=O)N(c1ccc(Nc3ccccc3)cc1)C2=O", "log10 of solubility kinetic": 1.71}
{"MOLECULE": "NS(=O)(=O)c1cc(C(=O)NCCc2ccccn2)ccc1Cl", "log10 of solubility kinetic": 1.69}
{"MOLECULE": "CC1CCCCC1NC(=O)CCCN1C(=O)c2ccccc2C1=O (configuration not stated)", "log10 of solubility kinetic": 1.20}
{"MOLECULE": "Cc1cccc(NC(=S)NC(=O)c2ccco2)c1C", "log10 of solubility kinetic": 1.56}
{"MOLECULE": "O=C(COC(=O)c1ccc2ccccc2c1O)NCC(F)(F)F", "log10 of solubility kinetic": 0.40}
